Measured values drawn from patent US20240360228A1 for this set.

As shown below, each of these binders has a reported % Positive cells value.
- target-system: T1, human chemokine (C-C motif) receptor 8 (CCR8) (human, UniProt P51685 1-355)
- T1 construct: also called hCCR8
- T1 sequence (P51685 whole entry): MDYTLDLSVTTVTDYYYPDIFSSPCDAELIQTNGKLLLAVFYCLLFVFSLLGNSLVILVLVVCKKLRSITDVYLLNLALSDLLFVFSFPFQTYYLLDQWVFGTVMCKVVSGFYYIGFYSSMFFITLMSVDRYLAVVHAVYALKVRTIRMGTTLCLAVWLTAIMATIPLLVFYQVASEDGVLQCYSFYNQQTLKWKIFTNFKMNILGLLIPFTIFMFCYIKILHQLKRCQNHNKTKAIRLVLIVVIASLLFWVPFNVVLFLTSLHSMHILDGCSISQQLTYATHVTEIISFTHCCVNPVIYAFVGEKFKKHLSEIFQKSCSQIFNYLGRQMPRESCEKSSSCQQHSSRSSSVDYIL
- assay-summary: flow cytometry blocking, human PBMC, CD3+ gate; % cells stained by competitor PE-AB15 after block
Answer format: numeric, % implied, no suffix.

Example entries and their recorded answers appear below.
Query :: What measured % Positive cells goes with anti-CCR8 monoclonal antibody AB13 (antibody, V domains shown, Hybridoma monoclonal; also called antibody 13; clone 13) VH: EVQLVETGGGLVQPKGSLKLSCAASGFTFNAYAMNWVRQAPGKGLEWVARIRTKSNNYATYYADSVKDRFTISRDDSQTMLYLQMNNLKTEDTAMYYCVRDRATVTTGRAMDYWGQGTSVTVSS VL: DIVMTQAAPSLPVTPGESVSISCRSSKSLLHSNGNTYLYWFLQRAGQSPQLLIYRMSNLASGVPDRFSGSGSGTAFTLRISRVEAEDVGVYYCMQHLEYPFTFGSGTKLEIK ?
Result :: 3.52

Query :: Also need anti-CCR8 monoclonal antibody AB6 (antibody, V domains shown, also called antibody 6; clone 6) VH: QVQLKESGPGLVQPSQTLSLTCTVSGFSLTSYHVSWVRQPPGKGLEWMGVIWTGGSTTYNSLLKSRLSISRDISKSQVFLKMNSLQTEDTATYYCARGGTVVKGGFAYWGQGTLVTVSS VL: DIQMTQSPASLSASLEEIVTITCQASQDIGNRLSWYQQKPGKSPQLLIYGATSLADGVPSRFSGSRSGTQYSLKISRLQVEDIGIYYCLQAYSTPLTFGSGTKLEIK , thanks.
Result :: 5.92

Query :: Ok, now anti-CCR8 monoclonal antibody AB8 (antibody, V domains shown, Hybridoma monoclonal; also called antibody 8; clone 8) VH: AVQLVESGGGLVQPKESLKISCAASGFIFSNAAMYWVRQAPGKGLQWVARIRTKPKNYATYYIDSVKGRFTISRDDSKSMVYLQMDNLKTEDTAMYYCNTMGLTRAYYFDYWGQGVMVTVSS VL: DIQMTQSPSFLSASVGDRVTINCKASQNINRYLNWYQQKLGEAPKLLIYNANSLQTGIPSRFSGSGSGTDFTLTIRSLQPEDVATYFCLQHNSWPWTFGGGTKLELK
Result :: 0.07

Query :: Next: anti-CCR8 monoclonal antibody AB7 (antibody, V domains shown, Hybridoma monoclonal; also called antibody 7; clone 7) VH: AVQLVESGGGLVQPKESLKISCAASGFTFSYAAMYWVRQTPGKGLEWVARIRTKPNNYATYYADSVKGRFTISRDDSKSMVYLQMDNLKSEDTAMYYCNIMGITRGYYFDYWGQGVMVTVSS VL: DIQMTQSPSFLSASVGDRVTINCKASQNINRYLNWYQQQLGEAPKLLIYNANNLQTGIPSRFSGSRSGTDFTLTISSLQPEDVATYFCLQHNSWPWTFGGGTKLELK
Result :: 0.85

Query :: Next record, please: anti-CCR8 monoclonal antibody AB11 (antibody, V domains shown, Hybridoma monoclonal; also called antibody 11; clone 11) VH: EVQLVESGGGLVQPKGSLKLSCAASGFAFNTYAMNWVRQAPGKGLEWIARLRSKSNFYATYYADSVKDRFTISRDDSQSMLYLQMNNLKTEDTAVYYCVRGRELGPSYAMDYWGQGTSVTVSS VL: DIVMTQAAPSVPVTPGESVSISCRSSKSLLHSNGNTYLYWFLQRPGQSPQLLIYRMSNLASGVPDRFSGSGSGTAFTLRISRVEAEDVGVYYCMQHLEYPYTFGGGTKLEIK
Result :: 0.16

Query :: Same thing, different binder: anti-CCR8 monoclonal antibody AB10 (antibody, V domains shown, Hybridoma monoclonal; also called antibody 10; clone 10) VH: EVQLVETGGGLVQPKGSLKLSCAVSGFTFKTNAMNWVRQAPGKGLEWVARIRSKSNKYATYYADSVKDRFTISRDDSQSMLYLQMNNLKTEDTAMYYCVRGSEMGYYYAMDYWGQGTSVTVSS VL: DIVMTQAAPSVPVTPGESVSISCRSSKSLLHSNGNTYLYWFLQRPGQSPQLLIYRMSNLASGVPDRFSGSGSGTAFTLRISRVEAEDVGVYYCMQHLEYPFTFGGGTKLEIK
Result :: 0.29

Now for another entry.
Query :: Entry under review: anti-CCR8 monoclonal antibody AB5 (antibody, V domains shown, Hybridoma monoclonal; also called antibody 5; clone 5) VH: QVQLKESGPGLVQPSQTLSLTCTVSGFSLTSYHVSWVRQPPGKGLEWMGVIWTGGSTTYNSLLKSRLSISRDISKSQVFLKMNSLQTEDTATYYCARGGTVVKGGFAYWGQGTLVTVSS VL: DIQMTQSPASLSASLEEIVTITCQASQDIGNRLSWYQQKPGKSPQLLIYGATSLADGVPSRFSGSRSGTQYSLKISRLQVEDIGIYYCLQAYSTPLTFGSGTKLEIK . Reported % Positive cells?
Result :: 6.75
